Assay: 4-HPR release from PLGA implants, tumor and sera levels (UPLC/UV)
Type: in vivo, nude mice
Conditions: male, nude, mouse, serum; all mice that received PLGA implants; below LLOQ
readout: concentration at 28 days post xenograft placement (treatment began on day 15)

Short answer for CC1=C(/C=C/C(C)=C/C=C/C(C)=C/C(=O)Nc2ccc(O)cc2)C(C)(C)CCC1 [4-HPR, 4-hydroxy(phenyl)retinamide] : concentration at 28 days post xenograft placement (treatment began on day 15) was < 50 ng/mL
